METHOD NOTES: total protein half-life in vivo (active degradation + dilution); higher = more stable protein
ASSAY CONDITIONS: E. coli NCM3722 delta-hslV; growth: N-lim chemostat; doubling time 6 h
METRIC: total protein half-life in vivo (h)
Respond with the bare value in h.

RESIDUE SEQUENCE	total protein half-life in vivo, h
MSDDNSHSSDTISNKKGFFSLLLSQLFHGEPKNRDELLALIRDSGQNDLIDEDTRDMLEGVMDIADQRVRDIMIPRSQMITLKRNQTLDECLDVIIESAHSRFPVISEDKDHIEGILMAKDLLPFMRSDAEAFSMDKVLRQAVVVPESKRVDRMLKEFRSQRYHMAIVIDEFGGVSGLVTIEDILELIVGEIEDEYDEEDDIDFRQLSRHTWTVRALASIEDFNEAFGTHFSDEEVDTIGGLVMQAFGHLPARGETIDIDGYQFKVAMADSRRIIQVHVKIPDDSPQPKLDE [P0AE78]	5.25

Record MRKSVIAIIIIVLVVLYMSVFVVKEGERGITLRFGKVLRDDDNKPLVYEPGLHFKIPFIETVKMLDARIQTMDNQADRFVTKEKKDLIVDSYIKWRISDFSRYYLATGGGDISQAEVLLKRKFSDRLRSEIGRLDVKDIVTDSRGRLTLEVRDALNSGSAGTEDEVTTPAADNAIAEAAERVTAETKGKVPVINPNSMAALGIEVVDVRIKQINLPTEVSEAIYNRMRAEREAVARRHRSQGQEEAEKLRATADYEVTRTLAEAERQGRIMRGEGDAEAAKLFADAFSKDPDFYAFIRSLRAYENSFSGNQDVMVMSPDSDFFRYMKTPTSATR [P0ABC3] , field total protein half-life in vivo: 6.36

Record MKAFNKLFSLVVASVLVFSLAGCGDKEESKKFSANLNGTEIAITYVYKGDKVLKQSSETKIQFASIGATTKEDAAKTLEPLSAKYKNIAGVEEKLTYTDTYAQENVTIDMEKVDFKALQGISGINVSAEDAKKGITMAQMELVMKAAGFKEVK , field total protein half-life in vivo: 5.31

Record MSKPIVMERGVKYRDADKMALIPVKNVATEREALLRKPEWMKIKLPADSTRIQGIKAAMRKNGLHSVCEEASCPNLAECFNHGTATFMILGAICTRRCPFCDVAHGRPVAPDANEPVKLAQTIADMALRYVVITSVDRDDLRDGGAQHFADCITAIREKSPQIKIETLVPDFRGRMDRALDILTATPPDVFNHNLENVPRIYRQVRPGADYNWSLKLLERFKEAHPEIPTKSGLMVGLGETNEEIIEVMRDLRRHGVTMLTLGQYLQPSRHHLPVQRYVSPDEFDEMKAEALAMGFTHAACGPFVRSSYHADLQAKGMEVK , field total protein half-life in vivo: 1.64

Record MHVFDNNGIELKAECSIGEEDGVYGLILESWGPGDRNKDYNIALDYIIERLVDSGVSQVVVYLASSSVRKHMHSLDERKIHPGEYFTLIGNSPRDIRLKMCGYQAYFSRTGRKEIPSGNRTKRILINVPGIYSDSFWASIIRGELSELSQPTDDESLLNMRVSKLIKKTLSQPEGSRKPVEVERLQKVYVRDPMVKAWILQQSKGICENCGKNAPFYLNDGNPYLEVHHVIPLSSGGADTTDNCVALCPNCHRELHYSKNAKELIEMLYVNINRLQK , field total protein half-life in vivo: 4.2
